study-target: PI3Kγ (Homo sapiens, UniProt P48736)
Construct: purchased Merck Millipore
Sequence (P48736 whole entry): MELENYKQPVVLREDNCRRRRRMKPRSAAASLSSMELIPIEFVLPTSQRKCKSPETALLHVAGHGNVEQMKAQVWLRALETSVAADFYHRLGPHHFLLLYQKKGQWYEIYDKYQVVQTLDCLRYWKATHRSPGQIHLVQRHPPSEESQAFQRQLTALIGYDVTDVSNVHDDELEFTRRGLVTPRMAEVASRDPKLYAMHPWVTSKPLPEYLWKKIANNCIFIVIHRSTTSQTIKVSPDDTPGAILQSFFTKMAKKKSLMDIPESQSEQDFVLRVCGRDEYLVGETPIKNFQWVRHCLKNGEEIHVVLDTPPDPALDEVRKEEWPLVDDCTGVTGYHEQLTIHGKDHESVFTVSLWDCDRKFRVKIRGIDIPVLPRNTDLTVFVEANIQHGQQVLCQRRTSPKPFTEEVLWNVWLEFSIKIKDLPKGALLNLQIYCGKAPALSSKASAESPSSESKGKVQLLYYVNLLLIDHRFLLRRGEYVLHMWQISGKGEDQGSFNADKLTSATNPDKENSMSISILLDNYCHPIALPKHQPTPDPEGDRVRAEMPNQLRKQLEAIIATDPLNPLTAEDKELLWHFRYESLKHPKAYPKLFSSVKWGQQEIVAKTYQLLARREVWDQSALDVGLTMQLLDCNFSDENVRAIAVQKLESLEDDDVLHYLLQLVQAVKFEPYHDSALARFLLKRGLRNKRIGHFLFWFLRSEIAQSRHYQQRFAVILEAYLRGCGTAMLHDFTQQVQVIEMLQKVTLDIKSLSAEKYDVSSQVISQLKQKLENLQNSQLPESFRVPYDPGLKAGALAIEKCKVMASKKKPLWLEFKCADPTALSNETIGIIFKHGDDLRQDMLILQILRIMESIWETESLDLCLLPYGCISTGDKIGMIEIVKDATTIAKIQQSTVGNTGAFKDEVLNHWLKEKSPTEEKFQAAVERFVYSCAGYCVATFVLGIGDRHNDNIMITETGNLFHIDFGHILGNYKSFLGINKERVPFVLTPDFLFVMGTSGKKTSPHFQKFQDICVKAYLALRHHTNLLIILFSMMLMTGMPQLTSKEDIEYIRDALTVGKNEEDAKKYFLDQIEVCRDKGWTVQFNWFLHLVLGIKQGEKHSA
assay: In vitro kinase inhibition assay for PI3K (ADP-Glo), PI3Kγ
Format: biochemical
pIC50: −log10 of the molar value.
In this section, each of the compounds is paired with its reported pIC50.
observed-property: pIC50

* CC(C)(C)N1CCN(Cc2cc3nc(-c4cncc5[nH]ccc45)cc(N4CCOCC4)n3n2)CC1 | 4.46
* CC(C)(C(N)=O)N1CCN(Cc2cc3nc(-c4cccc5[nH]ccc45)cc(N4CCOCC4)n3n2)CC1 | 4.76
* CC(C)(O)C1CCN(Cc2cc3nc(-c4cccc5[nH]ccc45)cc(N4CCOCC4)n3n2)CC1 | 4.80

----------
Measured Fold Selectivity β/δ accompanies every entry in the list below.
study-target: PI3Kβ (Homo sapiens)
Construct: purchased Merck Millipore
assay: In vitro kinase inhibition assay for PI3K (ADP-Glo), PI3Kβ
Format: biochemical
measurement-context: ratio of IC50 PI3Kβ to IC50 PI3Kδ
observed-property: Fold Selectivity β/δ

- CC(C)(O)C1CCN(Cc2cc3nc(-c4cncc5[nH]ccc45)cc(N4CCOCC4)n3n2)CC1: 188
- c1cc(-c2cc(N3CCOCC3)n3nc(CN4CCN(C5CC5)CC4)cc3n2)c2cc[nH]c2c1: 259
- CC(C)(O)C1CCN(Cc2cc3nc(-c4cccc5[nH]ccc45)cc(N4CCOCC4)n3n2)CC1: 332
- CC(C)(C)N1CCN(Cc2cc3nc(-c4cncc5[nH]ccc45)cc(N4CCOCC4)n3n2)CC1: 7714
- O=C(C1CC1)N1CCN(Cc2cc3nc(-c4cccc5[nH]ccc45)cc(N4CCOCC4)n3n2)CC1: 332
- CC(C)(C(N)=O)N1CCN(Cc2cc3nc(-c4cccc5[nH]ccc45)cc(N4CCOCC4)n3n2)CC1: 146
- CN(C)C1CCN(Cc2cc3nc(-c4cccc5[nH]ccc45)cc(N4CCOCC4)n3n2)CC1: 389
- CC(C)(O)C1CCN(Cc2cc3nc(-c4ccnc5[nH]ccc45)cc(N4CCOCC4)n3n2)CC1: 1165
- CC(C)(C)N1CCN(Cc2cc3nc(-c4cccc5[nH]ccc45)cc(N4CCOCC4)n3n2)CC1: 829
- CCN1CCN(Cc2cc3nc(-c4cccc5[nH]ccc45)cc(N4CCOCC4)n3n2)CC1: 253
- CC(C)(C)N1CCN(Cc2cc3nc(-c4ccnc5[nH]ccc45)cc(N4CCOCC4)n3n2)CC1: 711
- CC(C)(C)C1CCN(Cc2cc3nc(-c4cccc5[nH]ccc45)cc(N4CCOCC4)n3n2)CC1: 62
- CC(C)(C)N1CCN(Cc2cc3nc(-c4c(F)ccc5[nH]ccc45)cc(N4CCOCC4)n3n2)CC1: 1768
- CC(C)(O)C1CCN(Cc2cc3nc(-c4c(F)ccc5[nH]ccc45)cc(N4CCOCC4)n3n2)CC1: 283

----------
study-target: PI3Kγ (Homo sapiens)
Construct: purchased Merck Millipore
assay: In vitro kinase inhibition assay for PI3K (ADP-Glo), PI3Kγ
Assay type: biochemical
measurement-context: ratio of IC50 PI3Kγ to IC50 PI3Kδ
observed-property: Fold Selectivity γ/δ

- CC(C)(C)N1CCN(Cc2cc3nc(-c4cncc5[nH]ccc45)cc(N4CCOCC4)n3n2)CC1: 12,286
- CC(C)(C)N1CCN(Cc2cc3nc(-c4c(F)ccc5[nH]ccc45)cc(N4CCOCC4)n3n2)CC1: >5455
- CC(C)(C)N1CCN(Cc2cc3nc(-c4cccc5[nH]ccc45)cc(N4CCOCC4)n3n2)CC1: >9091

----------
study-target: PI3Kβ (Homo sapiens, UniProt P42338)
Construct: purchased Merck Millipore
Sequence (P42338 whole entry): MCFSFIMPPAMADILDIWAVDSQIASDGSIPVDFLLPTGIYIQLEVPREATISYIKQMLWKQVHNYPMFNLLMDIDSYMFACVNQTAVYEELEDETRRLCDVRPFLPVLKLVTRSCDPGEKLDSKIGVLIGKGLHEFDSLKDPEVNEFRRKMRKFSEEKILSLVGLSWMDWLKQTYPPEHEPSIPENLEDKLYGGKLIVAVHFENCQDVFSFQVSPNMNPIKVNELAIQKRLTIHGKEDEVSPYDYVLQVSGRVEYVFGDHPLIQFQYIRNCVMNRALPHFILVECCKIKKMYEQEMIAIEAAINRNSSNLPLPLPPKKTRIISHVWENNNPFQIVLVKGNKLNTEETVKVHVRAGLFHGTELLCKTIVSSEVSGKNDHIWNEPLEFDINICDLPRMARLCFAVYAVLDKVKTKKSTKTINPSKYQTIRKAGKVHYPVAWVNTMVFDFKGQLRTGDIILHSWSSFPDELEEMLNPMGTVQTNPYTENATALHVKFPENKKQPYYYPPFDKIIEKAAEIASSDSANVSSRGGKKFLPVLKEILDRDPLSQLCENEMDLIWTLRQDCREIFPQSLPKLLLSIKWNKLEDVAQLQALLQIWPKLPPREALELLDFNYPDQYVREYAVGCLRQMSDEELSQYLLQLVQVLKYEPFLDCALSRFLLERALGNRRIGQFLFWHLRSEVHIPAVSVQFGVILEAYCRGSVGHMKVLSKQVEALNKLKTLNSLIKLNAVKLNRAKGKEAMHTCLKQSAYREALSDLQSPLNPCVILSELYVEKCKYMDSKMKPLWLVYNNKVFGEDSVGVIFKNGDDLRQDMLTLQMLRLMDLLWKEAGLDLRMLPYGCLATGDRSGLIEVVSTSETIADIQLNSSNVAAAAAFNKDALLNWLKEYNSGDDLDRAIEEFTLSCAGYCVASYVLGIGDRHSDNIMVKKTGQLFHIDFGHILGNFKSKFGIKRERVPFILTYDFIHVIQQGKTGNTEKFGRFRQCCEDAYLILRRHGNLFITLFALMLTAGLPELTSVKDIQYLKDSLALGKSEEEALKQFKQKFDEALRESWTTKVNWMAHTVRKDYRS
Sequence (P27986 whole entry, further chain): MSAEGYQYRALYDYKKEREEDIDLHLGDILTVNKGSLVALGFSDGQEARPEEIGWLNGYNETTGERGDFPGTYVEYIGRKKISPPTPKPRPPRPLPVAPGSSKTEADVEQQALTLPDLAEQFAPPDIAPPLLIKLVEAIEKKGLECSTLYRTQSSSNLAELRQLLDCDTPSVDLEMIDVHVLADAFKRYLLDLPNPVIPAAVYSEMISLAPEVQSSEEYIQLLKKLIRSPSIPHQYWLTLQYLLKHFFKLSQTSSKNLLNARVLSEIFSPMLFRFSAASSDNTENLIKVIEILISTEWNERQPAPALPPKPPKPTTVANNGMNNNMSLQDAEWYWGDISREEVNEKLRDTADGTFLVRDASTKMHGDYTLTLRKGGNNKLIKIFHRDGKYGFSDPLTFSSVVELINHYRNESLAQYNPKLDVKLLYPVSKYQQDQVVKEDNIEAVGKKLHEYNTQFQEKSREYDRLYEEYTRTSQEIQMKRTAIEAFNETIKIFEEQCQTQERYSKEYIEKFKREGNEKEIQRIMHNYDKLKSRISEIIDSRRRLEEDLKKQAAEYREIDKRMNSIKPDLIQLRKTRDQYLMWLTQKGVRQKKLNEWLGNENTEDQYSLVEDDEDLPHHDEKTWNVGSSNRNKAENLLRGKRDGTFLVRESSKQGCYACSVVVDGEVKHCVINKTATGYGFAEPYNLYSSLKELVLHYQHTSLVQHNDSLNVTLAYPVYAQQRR
assay: In vitro kinase inhibition assay for PI3K (ADP-Glo), PI3Kβ
Format: biochemical
pIC50: −log10 of the molar value.
We begin with a simple list: items and their reported pIC50.
observed-property: pIC50

• CC(C)(C)N1CCN(Cc2cc3nc(-c4cncc5[nH]ccc45)cc(N4CCOCC4)n3n2)CC1 = 4.67
• CC(C)(C)N1CCN(Cc2cc3nc(-c4c(F)ccc5[nH]ccc45)cc(N4CCOCC4)n3n2)CC1 = 4.71

----------
Below, each entry is listed with its recorded IC50.
study-target: PI3Kγ (Homo sapiens, UniProt P48736)
Construct: purchased Merck Millipore
assay: In vitro kinase inhibition assay for PI3K (ADP-Glo), PI3Kγ
Type: biochemical
measurement-context: recombinant kinase, ADP-Glo, mean of two independent experiments; read-out: IC50 PI3K γ
Experimental: Tested compounds were dissolved in 100% DMSO, and obtained solutions were serially diluted in 1× reaction buffer. […] Detection of ADP formed in the enzymatic reaction was then performed using ADP-Glo Kinase Assay™ (Promega, Madison, WI, USA). […] Once the incubation was complete, the luminescence intensity was measured using a Victor Light luminometer (Perkin Elmer, Inc., Waltham, MA, USA). […]
observed-property: IC50

• CCN1CCN(Cc2cc3nc(-c4cccc5[nH]ccc45)cc(N4CCOCC4)n3n2)CC1 = > 60 µM
• CN(C)C1CCN(Cc2cc3nc(-c4cccc5[nH]ccc45)cc(N4CCOCC4)n3n2)CC1 = 49.3 µM
• O=C(C1CC1)N1CCN(Cc2cc3nc(-c4cccc5[nH]ccc45)cc(N4CCOCC4)n3n2)CC1 = 0.846 µM

----------
study-target: PI3Kγ (Homo sapiens)
Construct: purchased Merck Millipore
assay: In vitro kinase inhibition assay for PI3K (ADP-Glo), PI3Kγ
Format: biochemical
measurement-context: recombinant kinase, ADP-Glo, mean of two independent experiments; read-out: IC50 PI3K γ
Method: Tested compounds were dissolved in 100% DMSO, and obtained solutions were serially diluted in 1× reaction buffer. […] Detection of ADP formed in the enzymatic reaction was then performed using ADP-Glo Kinase Assay™ (Promega, Madison, WI, USA). […] Once the incubation was complete, the luminescence intensity was measured using a Victor Light luminometer (Perkin Elmer, Inc., Waltham, MA, USA). […]
pIC50: −log10 of the molar value.
observed-property: pIC50

* CC(C)(O)C1CCN(Cc2cc3nc(-c4c(F)ccc5[nH]ccc45)cc(N4CCOCC4)n3n2)CC1 [Compound 49] | 4.32
* CC(C)(C)C1CCN(Cc2cc3nc(-c4cccc5[nH]ccc45)cc(N4CCOCC4)n3n2)CC1 [Compound 41] | 5.01

----------
study-target: PI3Kδ (Homo sapiens)
Construct: purchased Merck Millipore
Sequence (P27986 whole entry): as the sequence (P27986 whole entry, further chain) above
Sequence (O00329 whole entry): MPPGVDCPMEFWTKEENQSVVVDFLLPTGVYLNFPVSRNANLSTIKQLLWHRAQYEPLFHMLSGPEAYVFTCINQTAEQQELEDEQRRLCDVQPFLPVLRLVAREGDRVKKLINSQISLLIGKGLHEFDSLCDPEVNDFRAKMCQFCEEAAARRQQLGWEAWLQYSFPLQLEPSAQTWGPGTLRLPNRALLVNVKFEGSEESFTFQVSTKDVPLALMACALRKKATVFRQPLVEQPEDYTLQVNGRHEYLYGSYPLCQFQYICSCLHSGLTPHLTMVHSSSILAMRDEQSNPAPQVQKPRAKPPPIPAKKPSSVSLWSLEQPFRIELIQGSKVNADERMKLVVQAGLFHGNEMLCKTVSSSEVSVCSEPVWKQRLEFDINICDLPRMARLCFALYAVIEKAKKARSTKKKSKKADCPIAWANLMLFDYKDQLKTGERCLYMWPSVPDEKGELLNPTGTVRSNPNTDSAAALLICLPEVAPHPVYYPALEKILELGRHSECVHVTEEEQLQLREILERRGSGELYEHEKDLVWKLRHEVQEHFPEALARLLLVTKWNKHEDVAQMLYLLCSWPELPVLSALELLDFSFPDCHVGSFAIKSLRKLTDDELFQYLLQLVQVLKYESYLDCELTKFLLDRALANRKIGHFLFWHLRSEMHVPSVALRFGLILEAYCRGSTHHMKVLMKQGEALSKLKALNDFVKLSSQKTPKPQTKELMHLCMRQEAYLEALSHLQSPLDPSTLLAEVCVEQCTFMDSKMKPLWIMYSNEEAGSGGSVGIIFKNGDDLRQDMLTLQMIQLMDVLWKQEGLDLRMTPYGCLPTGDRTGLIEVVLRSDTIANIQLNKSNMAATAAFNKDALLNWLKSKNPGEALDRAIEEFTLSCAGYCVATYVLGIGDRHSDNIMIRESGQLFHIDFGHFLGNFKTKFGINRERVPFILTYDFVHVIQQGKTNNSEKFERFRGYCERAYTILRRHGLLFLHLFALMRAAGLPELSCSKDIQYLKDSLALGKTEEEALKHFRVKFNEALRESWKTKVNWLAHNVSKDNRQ
assay: In vitro kinase inhibition assay for PI3K (ADP-Glo), PI3Kδ
Assay type: biochemical
measurement-context: recombinant kinase, mean of two independent experiments, read-out: IC50 PI3K δ
Procedure: Tested compounds were dissolved in 100% DMSO, and obtained solutions were serially diluted in 1× reaction buffer. […] Detection of ADP formed in the enzymatic reaction was then performed using ADP-Glo Kinase Assay™ (Promega, Madison, WI, USA). […] Once the incubation was complete, the luminescence intensity was measured using a Victor Light luminometer (Perkin Elmer, Inc., Waltham, MA, USA). […]
Reported IC50 values for a set of compounds
observed-property: IC50 (nM)

* CC(C)(C(N)=O)N1CCN(Cc2cc3nc(-c4cccc5[nH]ccc45)cc(N4CCOCC4)n3n2)CC1 [Compound 38] | 41
* c1cc(-c2cc(N3CCOCC3)n3nc(CN4CC5CC4CN5C4COC4)cc3n2)c2cc[nH]c2c1 (stereo not shown) [Compound 43] | 71
* CN1CCN(Cc2cc3nc(-c4cccc5[nH]ccc45)cc(N4CCOCC4)n3n2)CC1 [Compound 33] | 193
* CN1CCN(C2CCN(Cc3cc4nc(-c5cccc6[nH]ccc56)cc(N5CCOCC5)n4n3)CC2)CC1 [Compound 29] | 52

----------
assay: Metabolic phase I stability in human microsomes
Assay type: in vitro ADME
measurement-context: liver microsomes, human microsomes 0.5 mg/mL, NADPH, 37 °C, read-out: HLM t1/2
observed-property: half-life at 1 μM (h)

• CC(C)(C)N1CCN(Cc2cc3nc(-c4cccc5[nH]ccc45)cc(N4CCOCC4)n3n2)CC1 = 1.27

----------
assay: Metabolic phase I stability in human microsomes
Type: in vitro ADME
measurement-context: liver microsomes, heading: HLM Cl, human microsomes 0.5 mg/mL, NADPH, 37 °C
observed-property: microsomal CLint at 1 μM (µL/min/mg)

* CC(C)(C)N1CCN(Cc2cc3nc(-c4cccc5[nH]ccc45)cc(N4CCOCC4)n3n2)CC1 [Compound 37] | 22.8

----------
Reported values of pIC50 for individual entries
System: CD19 cells
assay: B cells proliferation by flow cytometry (CFSE)
Assay type: cell-based
measurement-context: B-cell, 96 h, CD19 cells from PBMC, activated by αIgM and ODN2006, four days
pIC50: −log10 of the molar value.
observed-property: pIC50

• CC(C)(C)N1CCN(Cc2cc3nc(-c4cccc5[nH]ccc45)cc(N4CCOCC4)n3n2)CC1 = 7.70
• CC(C)(C)N1CCN(Cc2cc3nc(-c4cncc5[nH]ccc45)cc(N4CCOCC4)n3n2)CC1 = 7.72
